- measurement.target: pooled human IgG
quantity.measured: Enzyme Activity Endpoint Assay: Fc (ng/µL)
Numeric only. Scale: ng/µL

>  <protein>
PRT-558 (protein) MANQEIRYSEETPSTITSIWTKGVTPPTQFIQNEDVLHAPYIANQGWYDITKTFNGKDDLLCGAATAGNMLHWWFDQNKTEIENYLTKHPEKQKINFNGEQMFDVKEAIDTKDSQTDSALFSYFKDKAFPYLSTKHLGVFPDHVIDMFINGYRLSLTNHGPTPVKRGTKDPRGGIFDAVFTRGDQTKLLTARHDFKEKTLNEISDLIKQELTEGKALGLSHTYANVRINHVINLWGADFNSEGNLEAIYVTDSDSNASIGMKKYYVGVNAAGKVAISAKEIEGDNIGAQVLGLFTLSTGQDIWQQTNLEHHHHHH

>  <quantity.measured>
Enzyme Activity Endpoint Assay: Fc

>  <unit.label>
ng/µL

>  <measurement>
281

$$$$

Continue with the next protein.
Q: Report measured Enzyme Activity Endpoint Assay: Fc; entry is PRT-569 (protein) MANQEIRYSKATPSHITSVWTKGVTPPEQFIYNEDVLHAPYIANQGWYDITKTFNGKDDLLCGAATAGNMLHWWFDQNKEQIENYLKKHPEKQKINFNGEQMFDVKEAIDTKDSQTNSALFSYFKDKAFPYLSTKHLGVFPDHVIDMFINGYRLSLTNHGPTPVKEQTKDPRGGIFDAVFTRGDQSKLLTSRHDFKEKTLNEISQLIKQELTEGKALGLSHTYANVRINHVINLWGADFNAEGNLEAIYVTDSDSNASIGMKKYYVGVNSAGKVAISAKEIEGDNIGAQVLGLFTLSTGQDIWQQTNLEHHHHHH
Ans: 294
